For each record, write down the corresponding self-cleavage kobs at 160 uM GlcN6P.
B1: glmS ribozyme (parent)
chain: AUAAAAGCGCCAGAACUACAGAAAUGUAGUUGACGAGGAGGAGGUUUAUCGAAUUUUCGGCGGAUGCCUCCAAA

Variants of: B1
Experiment: self-cleavage kobs at 160 uM GlcN6P; higher = faster cleavage; RNA array
Settings: with glucosamine-6-phosphate
This sample holds only a part of the variants without activity.
# unit: s⁻¹ | format: bare number

In plain terms, AUAAAAGCGCCAGAACUACAGAAAUGUAGUUAACGAGGAGGAGGUUUAUCGACUUUUCGGCGGAUGCCUCUAAA [G32A A53C C71U] has a documented self-cleavage kobs at 160 uM GlcN6P of 3.67e-05

In plain terms, AUAAAAGCGCAGGAACUACAGAAAUGUAGUUGACGAGGAGGAGGUUUAUCGAAUUUUCGGCGGAAGGCUCCAAA [C11A A12G U65A C67G] has a documented self-cleavage kobs at 160 uM GlcN6P of 0.000766

In plain terms, AUAAAAGCGCCAGAACUACAGAAAUGUAGUUAACGAGGAGGAGGUUUAUCGAAUUUUCGGCGGAUGCCUGCAAA [G32A C70G] has a documented self-cleavage kobs at 160 uM GlcN6P of 2.97e-05

In plain terms, AUAAAAGCGCCAGAACUACAGAAAUGUAGUUGACGAAGAGGAGGUUUAUCGAGUUUUCGGCGGAUGCCUCCAAA [G37A A53G] has a documented self-cleavage kobs at 160 uM GlcN6P of 0.000212

In plain terms, AUAAAAGCGCCAGAACUACAGAAAUGUACUUGACGAGGAGGAGGUUUAUCGAAUUGUCGGCGGAUGCCUCCAAA [G29C U56G] has a documented self-cleavage kobs at 160 uM GlcN6P of 7.08e-05

In plain terms, AUAAAAGCGCCAGAACUACAGAAAUGUAGUUGACGAGGAUGAGGUUUAUCGAAAUUUCGGCGGAUGCCUCCAAA [G40U U54A] has a documented self-cleavage kobs at 160 uM GlcN6P of 0.000207

In plain terms, AUAAAAGCGCCAGAACUACAGAAAUGUAGUUGACGAGGCGGAGGUUUAUCGAAUUUUCGGCGGAUGCCUCCAAA [A39C] has a documented self-cleavage kobs at 160 uM GlcN6P of 0.000491

In plain terms, AUAAAAGCGACAGAACUACAGAAAUGUAGUUGACGAGGAGGAGGUUUAUCGAAUUUUCGGCGGAUGCGUCCAAA [C10A C68G] has a documented self-cleavage kobs at 160 uM GlcN6P of 0.000416

In plain terms, AUAAAAGCGCUAGAACUACAGAAAUGUAGUCGACGAGGAGGAGGUUUAUCGAAUUUUCGGCGGAUGCCUCCAAA [C11U U31C] has a documented self-cleavage kobs at 160 uM GlcN6P of 2.97e-05

In plain terms, AUAAAAGCGCCAGAACUACAGAAAUGUAGUUGACGAGGACGAGGUUUAUCGAAGUUUCGGCGGAUGCCUCCAAA [G40C U54G] has a documented self-cleavage kobs at 160 uM GlcN6P of 0.000127

In plain terms, AUAAAAGCGCCAGAACUACAGAAAUGUAGAUGACGAGGAGGAGGAUUAUCGAAUUUUCGGCGGAUGCCUCCAAA [U30A U45A] has a documented self-cleavage kobs at 160 uM GlcN6P of 0.000872

In plain terms, AUAAAAGCGCCAGAGCUACAGAAAUGUAGUUGACGAGGAGGAGGUUUAUCGAAUUUUCGGCGAAUGCCGCCAAA [A15G G63A U69G] has a documented self-cleavage kobs at 160 uM GlcN6P of 4.54e-05

In plain terms, AUAAAAGCGCCAGAACUACAGAAAUGUAGUUGACGAGGAGGAGGUCUAUCGAAUUUUCGGCGGAUGCCUGCAAA [U46C C70G] has a documented self-cleavage kobs at 160 uM GlcN6P of 3.81e-05

In plain terms, AUAAAAGCGCCAGAACUACAGAAAUGUAGUUGACGAGGAGGAGGUUUAUCGAAGUUUCGGCGGAUGCCUCGAAA [U54G C71G] has a documented self-cleavage kobs at 160 uM GlcN6P of 0.000192

In plain terms, AUAAAAGCGCCAGGACUACAGAAAUGUAGUUGACGAGGAGGAGGUUUUUCGAAUUUUCGGCGGAUGCCUCCAAA [A14G A48U] has a documented self-cleavage kobs at 160 uM GlcN6P of 6.56e-05

In plain terms, AUAAAAGCGCCAGAACUACAGAAAUGUAGUUGACGAAGAGAAGGUUUAUCGAAUUUUCGGCGGAUGCCUCCAAA [G37A G41A] has a documented self-cleavage kobs at 160 uM GlcN6P of 3.21e-05

In plain terms, AUAAAAGCGCCAGAACUACAGAAAUGUAGUUGACGAGGAGGAGGUUUAUCGAAUUUUGGGCGGAUGCCUCCAAA [C58G] has a documented self-cleavage kobs at 160 uM GlcN6P of 1.37e-05

In plain terms, AUAAAAGCGCCAGAACUACAGAAAUGUAGUUGACGAGGAGGAGGUUUAUCGGAUUUUCGGCGGAUGUCUCCAAA [A52G C67U] has a documented self-cleavage kobs at 160 uM GlcN6P of 7.98e-05

In plain terms, AUAAAAGCGCCAGAACUACAGAAAUGUAGUUGACGAGGAGGAGGUUUAUCGAAAUUUCGGCGGAUGUCUCCAAA [U54A C67U] has a documented self-cleavage kobs at 160 uM GlcN6P of 0.000312

In plain terms, AUAAAAGCGCCAGAACUACAGAAAUGUAGUUGACGAGGAGUAGGUUUAUCGAAUUAUCGGCGGAUGCCUACAAA [G41U U56A C70A] has a documented self-cleavage kobs at 160 uM GlcN6P of 0.00226

In plain terms, AUAAAAGCGCCAGAAGUACAGAAAUGUAGUUGACGAGGAGGAGGUUUAUCGAAUUUUCGGCGGAUGCCUCCAAA [C16G] has a documented self-cleavage kobs at 160 uM GlcN6P of 0.000423
